Give measured PBM binding z-score for each item. Keep answers brief.
tested on: LXRa:RXRa (NR concentration 270 nM, RXRa partner concentration 90 nM); experiment: PBM binding z-score (relative to random genomic background probes); higher = stronger binding; sequences stand for … in GC…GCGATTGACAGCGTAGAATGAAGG
Kindly provide the number alone.

Consider the sequence "AGAATGACGTTATACGTAGATCAGGGAAGAAAGT" . State its measured PBM binding z-score.
-0.685

Consider the sequence "GATACAGGGTCATGGCCAGAGTACGCGTATTGAT" . State its measured PBM binding z-score.
4.72

Consider the sequence "GCGATTGGGGCATCAGCAGGTTACCATAACTTAA" . State its measured PBM binding z-score.
-0.187

Consider the sequence "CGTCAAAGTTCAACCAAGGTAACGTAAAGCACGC" . State its measured PBM binding z-score.
6.27

Consider the sequence "AGAACGAGGGCAATGAGTTAATAGCACGGGTGGC" . State its measured PBM binding z-score.
0.22

Consider the sequence "CATACTGGGCCAAGGTCATTGATCAGTCAAAGCA" . State its measured PBM binding z-score.
3.16

Consider the sequence "GGAACGAGGGCAAAGTTGTTAGCATCTGTCGACG" . State its measured PBM binding z-score.
0.635

Consider the sequence "CCGAGTAGTTTATGGGGCATTCAGGCAACGGTGA" . State its measured PBM binding z-score.
-0.0173

Consider the sequence "ATCGAAAGGTCGACGAGATGAGTATACACCGTTT" . State its measured PBM binding z-score.
2.9

Consider the sequence "CAAACTAGGTCAAAGGTCTAAGTCGAGCCAACCA" . State its measured PBM binding z-score.
4.37

Consider the sequence "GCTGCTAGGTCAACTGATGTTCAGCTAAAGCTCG" . State its measured PBM binding z-score.
2.78

Consider the sequence "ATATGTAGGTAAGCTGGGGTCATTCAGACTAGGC" . State its measured PBM binding z-score.
4.31

Consider the sequence "TCTCGGAGGACACGAAAGGTCGGAGCTCGACATC" . State its measured PBM binding z-score.
1.14

Consider the sequence "GCGACTGGGGCATCAGCACGTTACCATAACTTAA" . State its measured PBM binding z-score.
-0.417

Consider the sequence "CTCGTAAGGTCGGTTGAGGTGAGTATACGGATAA" . State its measured PBM binding z-score.
1.03

Consider the sequence "CGACCTAGGTCATCCAGGACAGTGAATACATTGA" . State its measured PBM binding z-score.
3.44

Consider the sequence "ATCGAAAGGTCGACGAGGTGACTATACACCGTTT" . State its measured PBM binding z-score.
3.44

Consider the sequence "ACTAGCATGCCAAGTTTGGGTCACTCAAACAAAG" . State its measured PBM binding z-score.
0.057

Consider the sequence "CGAACTAGGTCATTAACAGGACAGTGAATAGTAA" . State its measured PBM binding z-score.
2.59

Consider the sequence "GCATATAGGTAATAGAAGGTGAAAGTCCGATTGT" . State its measured PBM binding z-score.
1.95

Consider the sequence "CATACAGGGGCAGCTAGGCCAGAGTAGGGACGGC" . State its measured PBM binding z-score.
-0.459

Consider the sequence "ATATGTAGGTTACATCTGGGTCATTCAGGCTATG" . State its measured PBM binding z-score.
3.57

Consider the sequence "ATCGAAAGGTCGAAGGCGAGTATACCCACCCGAA" . State its measured PBM binding z-score.
3.3

Consider the sequence "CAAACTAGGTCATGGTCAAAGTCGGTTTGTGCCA" . State its measured PBM binding z-score.
2.64

Consider the sequence "CCTTACGGGTCACTGACAGGCTATAGCATTTGGA" . State its measured PBM binding z-score.
3.52

Consider the sequence "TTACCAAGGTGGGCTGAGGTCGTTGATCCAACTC" . State its measured PBM binding z-score.
0.463

Consider the sequence "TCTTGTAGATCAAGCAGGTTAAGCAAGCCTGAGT" . State its measured PBM binding z-score.
0.151

Consider the sequence "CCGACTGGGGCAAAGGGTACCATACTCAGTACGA" . State its measured PBM binding z-score.
-0.144

Consider the sequence "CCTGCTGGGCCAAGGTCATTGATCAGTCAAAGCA" . State its measured PBM binding z-score.
3.06

Consider the sequence "CGTCAAAGTTCAAGGTAACGTCACAGAAAGCAGC" . State its measured PBM binding z-score.
5.64

Consider the sequence "GCTCGTTGGTCAGTAAAAGGTCACACACCGGTCG" . State its measured PBM binding z-score.
4.86

Consider the sequence "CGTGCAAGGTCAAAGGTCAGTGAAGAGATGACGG" . State its measured PBM binding z-score.
6.9

Consider the sequence "AGTCAAAGTTCAGGTCGAGGTAACGTAAAGCACG" . State its measured PBM binding z-score.
4.08

Consider the sequence "GCTCGGAGGACAATGTCAGAGCTTTGTCCGTAGA" . State its measured PBM binding z-score.
-0.613

Consider the sequence "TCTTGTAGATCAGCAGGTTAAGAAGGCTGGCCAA" . State its measured PBM binding z-score.
0.344

Consider the sequence "AGAATGAGGTTATTATGATCAGGGAATTGCGGTC" . State its measured PBM binding z-score.
1.46

Consider the sequence "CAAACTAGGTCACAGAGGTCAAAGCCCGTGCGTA" . State its measured PBM binding z-score.
6.74

Consider the sequence "GCTAGTTGGTCAGTAAGAGGTCACACACCGGTCG" . State its measured PBM binding z-score.
3.64

Consider the sequence "ATCGCAAGGTCGAAGGTGAGTATACCCACCCGAA" . State its measured PBM binding z-score.
1.58

Consider the sequence "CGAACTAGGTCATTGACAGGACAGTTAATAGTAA" . State its measured PBM binding z-score.
3.12

Consider the sequence "ACTCGGAGGACTAAGGTCAGAGCTACGCCAGTGA" . State its measured PBM binding z-score.
1.78

Consider the sequence "CCTTACGGGTCACCGACAGGTTATAGCATTTGGA" . State its measured PBM binding z-score.
4.88

Consider the sequence "TCGAGTAGGTCAGGGGCATTCAGAATGGCGTCGA" . State its measured PBM binding z-score.
1.52

Consider the sequence "CGTCCAAGGGCAAAGGTCAGTGAAGAGATGACGG" . State its measured PBM binding z-score.
4.17

Consider the sequence "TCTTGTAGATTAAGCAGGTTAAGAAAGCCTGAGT" . State its measured PBM binding z-score.
0.349

Consider the sequence "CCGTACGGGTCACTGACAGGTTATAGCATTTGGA" . State its measured PBM binding z-score.
4.34

Consider the sequence "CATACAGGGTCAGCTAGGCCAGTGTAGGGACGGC" . State its measured PBM binding z-score.
2.82

Consider the sequence "ATCTTTAGGTAACAAGTTCAGTGAAAGAGAGGAC" . State its measured PBM binding z-score.
1.09

Consider the sequence "GCTTGTAGATCAAGGTTAATAAAGACTAAGCTAA" . State its measured PBM binding z-score.
2.14

Consider the sequence "TCTAGAAGGCCAGAGGGTCACTCAAGAGGTACGG" . State its measured PBM binding z-score.
1.11

Consider the sequence "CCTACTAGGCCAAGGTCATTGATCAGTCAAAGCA" . State its measured PBM binding z-score.
3.71
